- Assay Remarks: stability / deamidation kinetics of peptides by RP-HPLC
- Assay type: physicochemical
- Conditions: pH 7.3 (DMEM), 37° C.; read-out: half-life (height of main chromatographic peak) (converted)
Where a SMILES comes first, the peptide text is derived from it. Bridges are numbered along the chain shown (N, C = ends).

| Compound | half-life |
| --- | --- |
| CC(C)[C@H](NC(=O)CNC(=O)[C@@H]1CSSC[C@H](N)C(=O)N[C@@H](CC(N)=O)C(=O)NCC(=O)N[C@@H](CCCNC(=N)N)C(=O)N1)C(=O)N[C@@H](CCCNC(=N)N)C(=O)N[C@@H](Cc1ccc(O)cc1)C(=O)O [NGR-pep, CNGRCGVRY] (H-CNGRCGVRY-OH; disulfide 1-5; N-terminus and C-terminus assumed) | ~4 h |

---

- Assay Remarks: stability / deamidation kinetics of peptides by RP-HPLC
- Assay type: physicochemical
- Conditions: ammonium bicarbonate buffer; pH 8.5 (0.1 M ammonium bicarbonate), 37° C.; read-out: half-life (height of main chromatographic peak) (converted)
Where a SMILES comes first, the peptide text is derived from it. Bridges are numbered along the chain shown (N, C = ends).

| Compound | half-life |
| --- | --- |
| CC(C)[C@H](NC(=O)CNC(=O)[C@@H]1CSSC[C@H](N)C(=O)N[C@@H](CC(N)=O)C(=O)NCC(=O)N[C@@H](CCCNC(=N)N)C(=O)N1)C(=O)N[C@@H](CCCNC(=N)N)C(=O)N[C@@H](Cc1ccc(O)cc1)C(=O)O [NGR-pep, CNGRCGVRY] (H-CNGRCGVRY-OH; disulfide 1-5; N-terminus and C-terminus assumed) | ~2 h |
